Values from paper PMC2248166

- TARGET_UNDER_TEST: HLA B*0801 (Homo sapiens, UniProt P01889, A93T/A95T/D138N/E176V/E187T/K202T/Q94N/R180D/S35A/V36M/Y33D/Y91F)
- TEST_PROTOCOL: biochemical
- Assay type: binding
What Normalized average relative binding affinity (ARB), HLA B*0801 was measured for each of the following?
Please reply with the value in numeric form only.

Report Normalized average relative binding affinity (ARB), HLA B*0801, nothing else, for this sequence: YXXXXXXXX [3064.0020]
0.24

Annotate the sequence XRXXXXXXX [3064.0035] with its measured Normalized average relative binding affinity (ARB), HLA B*0801.
0.30

Specify measured Normalized average relative binding affinity (ARB), HLA B*0801 for XEXXXXXXX [3064.0024] .
0.038

Annotate the sequence XXPXXXXXX [3064.0053] with its measured Normalized average relative binding affinity (ARB), HLA B*0801.
0.072

Give me measured Normalized average relative binding affinity (ARB), HLA B*0801, please, for this sequence: XXAXXXXXX [3064.0041]
0.12

Annotate the sequence XVXXXXXXX [3064.0038] with its measured Normalized average relative binding affinity (ARB), HLA B*0801.
0.17

Consider the sequence XDXXXXXXX [3064.0023] and give its recorded Normalized average relative binding affinity (ARB), HLA B*0801.
0.014

In one line, give reported Normalized average relative binding affinity (ARB), HLA B*0801 of the entry XSXXXXXXX [3064.0036] .
0.13

Provide Normalized average relative binding affinity (ARB), HLA B*0801 value for the following sequence: XLXXXXXXX [3064.0030]
0.72

Identify Normalized average relative binding affinity (ARB), HLA B*0801 associated with the sequence XXIXXXXXX [3064.0048]
0.15

Provide Normalized average relative binding affinity (ARB), HLA B*0801 value for the following sequence: XXLXXXXXX [3064.0050]
0.21

Given the sequence XQXXXXXXX [3064.0034] , write its reported Normalized average relative binding affinity (ARB), HLA B*0801.
0.13

Look up and state reported Normalized average relative binding affinity (ARB), HLA B*0801 for XXNXXXXXX [3064.0052]
0.11

Identify measured Normalized average relative binding affinity (ARB), HLA B*0801 corresponding to XAXXXXXXX [3064.0021]
0.41

Give me measured Normalized average relative binding affinity (ARB), HLA B*0801, please, for this sequence: EXXXXXXXX [3064.0004]
0.36

Answer with the recorded Normalized average relative binding affinity (ARB), HLA B*0801 for the sequence listed here: XXDXXXXXX [3064.0043]
0.015

Assign Normalized average relative binding affinity (ARB), HLA B*0801 to the following record: XPXXXXXXX [3064.0033]
1.0

Give the reported Normalized average relative binding affinity (ARB), HLA B*0801 for this sequence. GXXXXXXXX [3064.0006]
0.088

Please list Normalized average relative binding affinity (ARB), HLA B*0801 recorded for the sequence KXXXXXXXX [3064.0009]
0.039

Return Normalized average relative binding affinity (ARB), HLA B*0801 (reported value) for this sequence: XIXXXXXXX [3064.0028]
0.24

Return the recorded Normalized average relative binding affinity (ARB), HLA B*0801 value; entry: XMXXXXXXX [3064.0031]
0.70

Complete the entry with Normalized average relative binding affinity (ARB), HLA B*0801 for XXSXXXXXX [3064.0056]
0.057

Fill in Normalized average relative binding affinity (ARB), HLA B*0801 for record XXKXXXXXX [3064.0049]
0.96

Identify the reported Normalized average relative binding affinity (ARB), HLA B*0801 for the following entry. QXXXXXXXX [3064.0014]
0.048

Identify the reported Normalized average relative binding affinity (ARB), HLA B*0801 for the following entry. XXEXXXXXX [3064.0044]
0.034

Input XGXXXXXXX [3064.0026] , output reported Normalized average relative binding affinity (ARB), HLA B*0801.
0.17

Quote Normalized average relative binding affinity (ARB), HLA B*0801 reported for DXXXXXXXX [3064.0003] please.
0.13

For the sequence XWXXXXXXX [3064.0039] , give its measured Normalized average relative binding affinity (ARB), HLA B*0801 value.
0.024

Specify measured Normalized average relative binding affinity (ARB), HLA B*0801 for PXXXXXXXX [3064.0013] .
0.012

State its Normalized average relative binding affinity (ARB), HLA B*0801 for this sequence: FXXXXXXXX [3064.0005]
0.57

Please indicate Normalized average relative binding affinity (ARB), HLA B*0801 recorded for AXXXXXXXX [3064.0001]
0.11

Query Normalized average relative binding affinity (ARB), HLA B*0801 for XXFXXXXXX [3064.0045]
0.19

Give the value of Normalized average relative binding affinity (ARB), HLA B*0801 reported for the following: XXYXXXXXX [3064.0060]
0.13

Consider the sequence XXWXXXXXX [3064.0059] and give its recorded Normalized average relative binding affinity (ARB), HLA B*0801.
0.19

State, in one line, measured Normalized average relative binding affinity (ARB), HLA B*0801 of VXXXXXXXX [3064.0018]
0.047

For the sequence XXHXXXXXX [3064.0047] , give its measured Normalized average relative binding affinity (ARB), HLA B*0801 value.
0.35

Give Normalized average relative binding affinity (ARB), HLA B*0801 for TXXXXXXXX [3064.0017]
0.076

Kindly indicate its recorded Normalized average relative binding affinity (ARB), HLA B*0801. Item: XKXXXXXXX [3064.0029]
0.097

Look up and report measured Normalized average relative binding affinity (ARB), HLA B*0801 for this entry: IXXXXXXXX [3064.0008]
0.068

Fill in reported Normalized average relative binding affinity (ARB), HLA B*0801 for this entry: RXXXXXXXX [3064.0015]
0.19

Give the measured Normalized average relative binding affinity (ARB), HLA B*0801 for CXXXXXXXX [3064.0002]
0.16

Report measured Normalized average relative binding affinity (ARB), HLA B*0801; entry is XHXXXXXXX [3064.0027]
0.028

Identify measured Normalized average relative binding affinity (ARB), HLA B*0801 associated with XXXDXXXXX [3064.0063]
0.072

Respond only with Normalized average relative binding affinity (ARB), HLA B*0801 recorded for XCXXXXXXX [3064.0022]
0.028

Kindly indicate its recorded Normalized average relative binding affinity (ARB), HLA B*0801. Item: XXVXXXXXX [3064.0058]
0.024

State its Normalized average relative binding affinity (ARB), HLA B*0801: XXCXXXXXX [3064.0042]
0.020

Entry XYXXXXXXX [3064.0040] needs its Normalized average relative binding affinity (ARB), HLA B*0801 filled in; supply it.
0.066

---

- TARGET_UNDER_TEST: HLA B*0801 (Homo sapiens, UniProt P01889, A93T/A95T/D138N/E176V/E187T/K202T/Q94N/R180D/S35A/V36M/Y33D/Y91F)
- TEST_PROTOCOL: biochemical
Where a SMILES comes first, the peptide text is derived from it.
TEST_READOUT: pIC50
The value called pIC50 is obtained by taking minus log10 of the concentration in mol/L.

Give pIC50 for the following molecule: CSCC[C@H](NC(=O)[C@H](CC(=O)O)NC(=O)[C@@H](NC(=O)[C@H](Cc1ccccc1)NC(=O)[C@H](Cc1c[nH]cn1)NC(=O)[C@H](CCSC)NC(=O)[C@H](CO)NC(=O)[C@H](CCC(N)=O)NC(=O)[C@@H](N)Cc1ccccc1)[C@@H](C)O)C(=O)O [3102.1283] (H-FQSMHFTDM-OH)
7.08

Supply pIC50 value. Item: CC[C@H](C)[C@H](NC(=O)[C@H](CC(N)=O)NC(=O)[C@H](CCCCN)NC(=O)[C@H](Cc1ccccc1)NC(=O)[C@H](CCCNC(=N)N)NC(=O)[C@H](CC(N)=O)NC(=O)[C@H](CCSC)NC(=O)[C@H](CC(C)C)NC(=O)[C@@H](N)Cc1ccc(O)cc1)C(=O)O [3102.0642] (H-YLMNRFKNI-OH)
8.89

Indicate its recorded pIC50; the molecule in question is CC[C@H](C)[C@H](NC(=O)[C@H](Cc1c[nH]cn1)NC(=O)[C@H](Cc1ccccc1)NC(=O)[C@H](CC(C)C)NC(=O)[C@H](CC(N)=O)NC(=O)[C@@H]1CCCN1C(=O)[C@H](CC(C)C)NC(=O)[C@@H](N)CCCNC(=N)N)C(=O)N[C@@H](CC(C)C)C(=O)O [3102.0632] (H-RLPNLFHIL-OH)
7.16

// Input: CC(C)C[C@H](NC(=O)[C@@H](N)CC(=O)O)C(=O)N[C@@H](CCCNC(=N)N)C(=O)N[C@@H](CCCNC(=N)N)C(=O)N[C@@H](CCCNC(=N)N)C(=O)N[C@@H](Cc1ccccc1)C(=O)N[C@@H](CC(=O)O)C(=O)N[C@H](C(=O)N[C@@H](Cc1ccccc1)C(=O)O)[C@@H](C)O [3102.0667] (H-DLRRRFDTF-OH) . Output its pIC50 only.
8.80

Input CC(C)C[C@H](NC(=O)[C@@H](N)CC(C)C)C(=O)N[C@@H](CCCCN)C(=O)N1CCC[C@H]1C(=O)N[C@@H](CCCNC(=N)N)C(=O)N[C@@H](CS)C(=O)N[C@@H](CC(N)=O)C(=O)N1CCC[C@H]1C(=O)N[C@@H](C)C(=O)O [3102.0901] (H-LLKPRCNPA-OH) , output reported pIC50.
8.92

Report measured pIC50; entry is CSCC[C@H](N)C(=O)N[C@@H](Cc1ccccc1)C(=O)N[C@@H](CCCNC(=N)N)C(=O)N[C@@H](CCCCN)C(=O)N[C@@H](CCCCN)C(=O)N[C@@H](CCCNC(=N)N)C(=O)N[C@@H](CC(C)C)C(=O)N[C@@H](Cc1ccccc1)C(=O)N[C@@H](CC(C)C)C(=O)O [3102.0580] (H-MFRKKRLFL-OH)
8.96

Given CC[C@H](C)[C@H](NC(=O)[C@@H](N)Cc1ccccc1)C(=O)N[C@@H](C)C(=O)N[C@@H](CCCCN)C(=O)N[C@@H](Cc1c[nH]cn1)C(=O)N[C@@H](Cc1ccccc1)C(=O)N[C@@H](CC(C)C)C(=O)N[C@@H](CCC(=O)O)C(=O)N[C@@H](CC(C)C)C(=O)O [3102.0900] (H-FIAKHFLEL-OH) , respond with its pIC50.
8.89
